- Tested on: BaF3
- assay.procedure: Antiproliferative activity against mouse BAF3 cells expressing wild type Bcr-Abl
- Format: functional, cell-based
pEC50: −log10 of the molar value.
As shown below, each of these compounds has a reported pEC50 value.
reported.property: pEC50

compound.string: CCN1CCN(Cc2ccc(NC(=O)c3ccc(C)c(C#Cc4cncnc4)c3)cc2C(F)(F)F)CC1
relation: >
value: 9.00
--
compound.string: Cc1cn(-c2cc(NC(=O)c3ccc(C)c(C#Cc4cnc5[nH]ccc5c4)c3)cc(C(F)(F)F)c2)cn1
relation: =
value: 7.43
--
compound.string: CCN1CCN(Cc2ccc(NC(=O)c3ccc(C)c(C#Cc4cnccn4)c3)cc2C(F)(F)F)CC1
relation: =
value: 8.22
--
compound.string: CCN1CCN(Cc2ccc(NC(=O)c3ccc(C)c(C#Cc4cnc5nccnc5c4)c3)cc2C(F)(F)F)CC1
relation: =
value: 7.43
--
compound.string: CCN1CCN(Cc2ccc(NC(=O)c3ccc(C)c(C#Cc4cnc5[nH]c(C)cc5c4)c3)cc2C(F)(F)F)CC1
relation: =
value: 7.59
--
compound.string: CCN1CCN(Cc2ccc(NC(=O)c3ccc(C)c(C#Cc4ccc(NC(=O)C5CC5)nc4)c3)cc2C(F)(F)F)CC1
relation: >
value: 9.00
--
compound.string: CCN1CCN(Cc2ccc(NC(=O)c3ccc(C)c(C#Cc4cnc5[nH]cnc5c4)c3)cc2C(F)(F)F)CC1
relation: >
value: 9.00
--
compound.string: CCN1CCN(Cc2ccc(NC(=O)c3ccc(C)c(C#Cc4coc5ccccc45)c3)cc2C(F)(F)F)CC1
relation: =
value: 6.62
--
compound.string: CCN1CCN(Cc2ccc(NC(=O)c3ccc(C)c(C#Cc4cnc5[nH]ccc5c4)c3)cc2C(F)(F)F)CC1
relation: >
value: 9.00
--
compound.string: CCN1CCN(Cc2ccc(NC(=O)c3ccc(C)c(C#Cc4ccc(C(=O)NC)nc4)c3)cc2C(F)(F)F)CC1
relation: =
value: 7.39
--
compound.string: Cc1cn(-c2cc(NC(=O)c3cccc(C#Cc4cnc5[nH]ccc5c4)c3)cc(C(F)(F)F)c2)cn1
relation: =
value: 7.82
--
compound.string: CCN1CCN(Cc2ccc(NC(=O)c3ccc(C)c(C#Cc4ccc(NC(C)=O)nc4)c3)cc2C(F)(F)F)CC1
relation: >
value: 9.00
--
compound.string: CCN1CCN(Cc2ccc(NC(=O)c3cccc(C#Cc4cnc5[nH]ccc5c4)c3)cc2C(F)(F)F)CC1
relation: =
value: 7.96
--
compound.string: CCN1CCN(Cc2ccc(NC(=O)c3ccc(C)c(C#Cc4cccnc4)c3)cc2C(F)(F)F)CC1
relation: >
value: 9.00
--
compound.string: CCN1CCN(Cc2ccc(NC(=O)c3ccc(C)c(C#Cc4cnc(N)cn4)c3)cc2C(F)(F)F)CC1
relation: >
value: 9.00
--
compound.string: CCN1CCN(Cc2ccc(C(=O)Nc3ccc(C)c(C#Cc4cnc5[nH]ccc5c4)c3)cc2C(F)(F)F)CC1
relation: =
value: 7.15

---

- Tested on: BaF3
- assay.procedure: Antiproliferative activity against mouse BAF3 cells
- Format: functional, cell-based
API: label(entry) gives yes (1) if the entry's EC50 is strictly smaller than 2000 nM; on equality or larger values it gives no (0).

compound.string: Cc1cn(-c2cc(NC(=O)c3ccc(C)c(C#Cc4cnc5[nH]ccc5c4)c3)cc(C(F)(F)F)c2)cn1
cat: no (0)

compound.string: CCN1CCN(Cc2ccc(NC(=O)c3ccc(C)c(C#Cc4coc5ccccc45)c3)cc2C(F)(F)F)CC1
cat: no (0)

compound.string: CCN1CCN(Cc2ccc(NC(=O)c3ccc(C)c(C#Cc4cnc5[nH]c(C)cc5c4)c3)cc2C(F)(F)F)CC1
cat: yes (1)

compound.string: CCN1CCN(Cc2ccc(NC(=O)c3ccc(C)c(C#Cc4cncnc4)c3)cc2C(F)(F)F)CC1
cat: no (0)

compound.string: CCN1CCN(Cc2ccc(C(=O)Nc3ccc(C)c(C#Cc4cnc5[nH]ccc5c4)c3)cc2C(F)(F)F)CC1
cat: no (0)

compound.string: CCN1CCN(Cc2ccc(NC(=O)c3cccc(C#Cc4cnc5[nH]ccc5c4)c3)cc2C(F)(F)F)CC1
cat: no (0)

compound.string: CCN1CCN(Cc2ccc(NC(=O)c3ccc(C)c(C#Cc4cnc(N)cn4)c3)cc2C(F)(F)F)CC1
cat: yes (1)

compound.string: CCN1CCN(Cc2ccc(NC(=O)c3ccc(C)c(C#Cc4cnccn4)c3)cc2C(F)(F)F)CC1
cat: no (0)

compound.string: CCN1CCN(Cc2ccc(NC(=O)c3ccc(C)c(C#Cc4cnc5[nH]ccc5c4)c3)cc2C(F)(F)F)CC1
cat: yes (1)

compound.string: CCN1CCN(Cc2ccc(NC(=O)c3ccc(C)c(C#Cc4ccc(C(=O)NC)nc4)c3)cc2C(F)(F)F)CC1
cat: no (0)

compound.string: CCN1CCN(Cc2ccc(NC(=O)c3ccc(C)c(C#Cc4cnc5nccnc5c4)c3)cc2C(F)(F)F)CC1
cat: no (0)
